assay: Phase I study, pharmacokinetic parameters after oral single dose and daily dose for 7 days; assay type: in vivo, human; conditions: human, in vivo; single dose 10 mg, oral; read-out: T½ elimination half-life (converted)
PROPERTY LABEL: half-life

Request: Look up half-life of COc1ccc2[nH]c([S+]([O-])Cc3ncc(C)c(OC)c3C)nc2n1 (stereo not shown) and report it.
Result: 5 h

###

experiment: Phase I study, pharmacokinetic parameters after oral single dose and daily dose for 7 days; type: in vivo, human; conditions: human, plasma, oral; after a single dose, depending on the dose (10-80 mg); read-out: mean elimination half-lives
PROPERTY LABEL: half-life

Request: Look up half-life of COc1ccc2[nH]c([S+]([O-])Cc3ncc(C)c(OC)c3C)nc2n1 (stereo not shown) and report it.
Result: 5 to 6 h

###

test: Phase I study, pharmacokinetic parameters after oral single dose and daily dose for 7 days; assay type: in vivo, human; details: human, in vivo, po, 20 mg, single dose 20 mg, oral; read-out: AUC 0-t area under the curve, between time 0 and the last measurable concentration
PROPERTY LABEL: AUC(0-t)
Show the value, then the unit it is measured in.

Request: Look up AUC(0-t) of COc1ccc2[nH]c([S+]([O-])Cc3ncc(C)c(OC)c3C)nc2n1 (stereo not shown) and report it.
Result: 24000 ng·h/mL

###

assay: Phase I study, pharmacokinetic parameters after oral single dose and daily dose for 7 days; assay type: in vivo, human; conditions: human, in vivo; repeated dose (7 days) 10 mg daily, oral; read-out: T½ elimination half-life (converted)
PROPERTY LABEL: half-life at 7 days (h)
Give bare numbers, in h.

Request: Look up half-life at 7 days of COc1ccc2[nH]c([S+]([O-])Cc3ncc(C)c(OC)c3C)nc2n1 (stereo not shown) and report it.
Result: 5

###

assay: Phase I study, pharmacokinetic parameters after oral single dose and daily dose for 7 days; format: in vivo, human; settings: human, in vivo; repeated dose (7 days) 40 mg daily, oral; read-out: Tmax time required to attain maximum concentration
PROPERTY LABEL: Tmax at 7 days (h)
Answers are plain numbers, in h.

Request: Look up Tmax at 7 days of COc1ccc2[nH]c([S+]([O-])Cc3ncc(C)c(OC)c3C)nc2n1 (stereo not shown) and report it.
Result: 3

###

assay: Phase I study, pharmacokinetic parameters after oral single dose and daily dose for 7 days; format: in vivo, human; settings: human, in vivo; repeated dose (7 days) 10 mg daily, oral; read-out: Tmax time required to attain maximum concentration
PROPERTY LABEL: Tmax at 7 days (h)
Answers are plain numbers, in h.

Request: Look up Tmax at 7 days of COc1ccc2[nH]c([S+]([O-])Cc3ncc(C)c(OC)c3C)nc2n1 (stereo not shown) [tenatoprazole] and report it.
Result: 3

###

Test: Phase I study, pharmacokinetic parameters after oral single dose and daily dose for 7 days
Assay type: in vivo, human
Settings: human, in vivo; repeated dose (7 days) 10 mg daily, oral; read-out: Cmax maximum concentration
Protocol: The doses tested were 10, 20, 40 and 80 mg of tenatoprazole. In this table, the abbreviations employed have the following meaning: Cmax maximum concentration Tmax time required to attain maximum concentration T1/2 elimination half-life AUC0-t area under the curve, between time 0 and the last measurable concentration. The AUC0-inf value was calculated by extrapolation.
PROPERTY LABEL: Cmax at 7 days (ng/mL)
One number for each entry, in ng/mL.

Request: Look up Cmax at 7 days of COc1ccc2[nH]c([S+]([O-])Cc3ncc(C)c(OC)c3C)nc2n1 (stereo not shown) and report it.
Result: 1600
